Measured Stability of Plant-Derived Cannabinoid Compounds in AB White, 8° C., listed per entry.
test: Stability of cannabinoid compounds and Vitamin E components in Beverage 1 (AB White) by LCMSMS; type: physicochemical; details: AB White stored at 8° C.; 60 days

Worked cases, answers included:
CCCCCc1cc(O)c(C/C=C(\C)CCC=C(C)C)c(O)c1 [CBG, cannabigerol] : 4.68 µg/mL
CCCCCc1cc(O)c2c(c1)OC1(C)CCC3C1C2C3(C)C (stereo not shown) [CBL, cannabicyclol] : 0.543 µg/mL
C=C(C)[C@@H]1CCC(C)=C[C@H]1c1c(O)cc(CCCCC)c(C(=O)O)c1O [CBDA, cannabidiolic acid] : 1.70 µg/mL
CCCCCc1cc(O)c2c(c1)OC(C)(CCC=C(C)C)C=C2 (stereo not shown) [CBC, cannabichromene] : 0.316 µg/mL
CCCCCc1cc2c(c(O)c1C(=O)O)[C@@H]1C=C(C)CC[C@H]1C(C)(C)O2 [D9 THCA, delta-9-tetrahydrocannabinolic acid] : 0.914 µg/mL

Q. Note Stability of Plant-Derived Cannabinoid Compounds in AB White, 8° C. for the molecule shown: CCCCCc1cc(O)c2c(c1)OC(C)(C)[C@@H]1CCC(C)=C[C@@H]21 [D9 THC, delta-9-tetrahydrocannabinol, reference compound]
A. 11.77 µg/mL

Q. Provide measured Stability of Plant-Derived Cannabinoid Compounds in AB White, 8° C. value, entry: CCCCCc1cc(O)c2c(c1)OC(C)(C)c1ccc(C)cc1-2 [CBN, cannabinol]
A. 2.68 µg/mL

Q. Quote Stability of Plant-Derived Cannabinoid Compounds in AB White, 8° C. reported for CCCc1cc(O)c2c(c1)OC(C)(C)[C@@H]1CCC(C)=C[C@@H]21 [THCV, delta-9-tetrahydrocannabivarin] please.
A. 3.58 µg/mL

Q. Answer with reported Stability of Plant-Derived Cannabinoid Compounds in AB White, 8° C. of C=C(C)[C@@H]1CCC(C)=C[C@H]1c1c(O)cc(CCC)cc1O [CBDV, cannabidivarin]
A. 0.143 µg/mL

Q. Look up and report measured Stability of Plant-Derived Cannabinoid Compounds in AB White, 8° C. for this entry: C=C(C)[C@@H]1CCC(C)=C[C@H]1c1c(O)cc(CCCCC)cc1O [CBD, cannabidiol, reference compound]
A. 27.73 µg/mL

----------
Some compounds, each annotated with its measured Stability of Plant-Derived Cannabinoid Compounds in AB White, 8° C..
assay: Stability of cannabinoid compounds and Vitamin E components in Beverage 1 (AB White) by LCMSMS; assay type: physicochemical; settings: AB White stored at 8° C.; 24 days
API: value field is a number in µg/mL; no unit string.

CCCc1cc(O)c2c(c1)OC(C)(C)[C@@H]1CCC(C)=C[C@@H]21 [THCV, delta-9-tetrahydrocannabivarin] : 3.56

Q. Please give the documented Stability of Plant-Derived Cannabinoid Compounds in AB White, 8° C. of C=C(C)[C@@H]1CCC(C)=C[C@H]1c1c(O)cc(CCCCC)c(C(=O)O)c1O [CBDA, cannabidiolic acid]
A. 1.72

Q. Output Stability of Plant-Derived Cannabinoid Compounds in AB White, 8° C. of CCCCCc1cc(O)c2c(c1)OC(C)(C)[C@@H]1CCC(C)=C[C@@H]21 [D9 THC, delta-9-tetrahydrocannabinol, reference compound]
A. 11.87

----------
assay: Stability of cannabinoid compounds and Vitamin E components in Beverage 2 (AB Red) by LCMSMS; type: physicochemical; details: stored at 8° C., 240 days
Measured Stability of Plant-Derived Cannabinoid Compounds in AB Red by item
Write the number in µg/mL without appending the unit.

Worked examples follow.
CCCCCc1cc(O)c2c(c1)OC(C)(C)[C@@H]1CCC(C)=C[C@@H]21 [D9 THC, delta-9-tetrahydrocannabinol, reference compound] : 12.4
CCCCCc1cc(O)c2c(c1)OC(C)(CCC=C(C)C)C=C2 (stereo not drawn) : 0.280
CCCCCc1cc(O)c(C/C=C(\C)CCC=C(C)C)c(O)c1 : 4.68
CCCc1cc(O)c2c(c1)OC(C)(C)[C@@H]1CCC(C)=C[C@@H]21 [THCV, delta-9-tetrahydrocannabivarin] : 3.08
C=C(C)[C@@H]1CCC(C)=C[C@H]1c1c(O)cc(CCCCC)c(C(=O)O)c1O : 1.66

Q. State its Stability of Plant-Derived Cannabinoid Compounds in AB Red: C=C(C)[C@@H]1CCC(C)=C[C@H]1c1c(O)cc(CCC)cc1O
A. 0.192

Q. Specify measured Stability of Plant-Derived Cannabinoid Compounds in AB Red for CCCCCc1cc2c(c(O)c1C(=O)O)[C@@H]1C=C(C)CC[C@H]1C(C)(C)O2 [D9 THCA, delta-9-tetrahydrocannabinolic acid] .
A. 1.32

Q. Entry CCCCCc1cc(O)c2c(c1)OC1(C)CCC3C1C2C3(C)C (stereo not drawn) needs its Stability of Plant-Derived Cannabinoid Compounds in AB Red filled in; supply it.
A. 0.490

Q. Identify measured Stability of Plant-Derived Cannabinoid Compounds in AB Red corresponding to CCCCCc1cc(O)c2c(c1)OC(C)(C)c1ccc(C)cc1-2
A. 2.74

----------
assay: Stability of cannabinoid compounds and Vitamin E components in Beverage 2 (AB Red) by LCMSMS; assay type: physicochemical; conditions: stored at 8° C., 540 days
Entries and their Stability of Plant-Derived Cannabinoid Compounds in AB Red
Supply the numeric figure in µg/mL, leaving out any unit text.

Example cases with answers are listed next.
CCCCCc1cc(O)c(C/C=C(\C)CCC=C(C)C)c(O)c1 : 4.42
CCCCCc1cc(O)c2c(c1)OC(C)(CCC=C(C)C)C=C2 (stereo not drawn) : 0.271
C=C(C)[C@@H]1CCC(C)=C[C@H]1c1c(O)cc(CCC)cc1O : 0.185

Q. Query Stability of Plant-Derived Cannabinoid Compounds in AB Red for C=C(C)[C@@H]1CCC(C)=C[C@H]1c1c(O)cc(CCCCC)c(C(=O)O)c1O
A. 1.55

Q. Provide only the value of recorded Stability of Plant-Derived Cannabinoid Compounds in AB Red for CCCCCc1cc2c(c(O)c1C(=O)O)[C@@H]1C=C(C)CC[C@H]1C(C)(C)O2 [D9 THCA, delta-9-tetrahydrocannabinolic acid]
A. 1.26

Q. Report Stability of Plant-Derived Cannabinoid Compounds in AB Red, nothing else, for this compound: CCCc1cc(O)c2c(c1)OC(C)(C)[C@@H]1CCC(C)=C[C@@H]21 [THCV, delta-9-tetrahydrocannabivarin]
A. 2.99

Q. Please look at this compound and report its Stability of Plant-Derived Cannabinoid Compounds in AB Red: CCCCCc1cc(O)c2c(c1)OC1(C)CCC3C1C2C3(C)C (stereo not drawn)
A. 0.470

Q. Could you please provide reported Stability of Plant-Derived Cannabinoid Compounds in AB Red for CCCCCc1cc(O)c2c(c1)OC(C)(C)[C@@H]1CCC(C)=C[C@@H]21 [D9 THC, delta-9-tetrahydrocannabinol, reference compound] ? Thanks!
A. 11.9

Q. Check the records and state Stability of Plant-Derived Cannabinoid Compounds in AB Red for CCCCCc1cc(O)c2c(c1)OC(C)(C)c1ccc(C)cc1-2
A. 2.60

----------
experiment: Stability of cannabinoid compounds and Vitamin E components in Beverage 1 (AB White) by LCMSMS; format: physicochemical; settings: AB White stored at 8° C.; 420 days
ATTRIBUTE MEASURED: Stability of Plant-Derived Cannabinoid Compounds in AB White, 8° C. (µg/mL)
I only need the number, in µg/mL, no unit after it.

Q. Respond only with Stability of Plant-Derived Cannabinoid Compounds in AB White, 8° C. recorded for CCCCCc1cc2c(c(O)c1C(=O)O)[C@@H]1C=C(C)CC[C@H]1C(C)(C)O2 [D9 THCA, delta-9-tetrahydrocannabinolic acid]
A. 0.916

Q. Note down Stability of Plant-Derived Cannabinoid Compounds in AB White, 8° C. recorded for CCCCCc1cc(O)c(C/C=C(\C)CCC=C(C)C)c(O)c1
A. 4.66

Q. Name the recorded Stability of Plant-Derived Cannabinoid Compounds in AB White, 8° C. of the item CCCCCc1cc(O)c2c(c1)OC(C)(C)c1ccc(C)cc1-2 in your answer.
A. 2.70

----------
The entries below are paired with their reported Stability of Plant-Derived Cannabinoid Compounds in AB Red.
assay: Stability of cannabinoid compounds and Vitamin E components in Beverage 2 (AB Red) by LCMSMS; type: physicochemical; settings: stored at 21-25° C., 570 days
Please state the figure in µg/mL; there is no need to write the unit.

CCCCCc1cc(O)c2c(c1)OC(C)(CCC=C(C)C)C=C2 (stereo not drawn) [CBC, cannabichromene] : 0.27
CCCc1cc(O)c2c(c1)OC(C)(C)[C@@H]1CCC(C)=C[C@@H]21 [THCV, delta-9-tetrahydrocannabivarin] : 2.98
C=C(C)[C@@H]1CCC(C)=C[C@H]1c1c(O)cc(CCC)cc1O [CBDV, cannabidivarin] : 0.18
CCCCCc1cc(O)c2c(c1)OC(C)(C)c1ccc(C)cc1-2 [CBN, cannabinol] : 2.58
CCCCCc1cc2c(c(O)c1C(=O)O)[C@@H]1C=C(C)CC[C@H]1C(C)(C)O2 [D9 THCA, delta-9-tetrahydrocannabinolic acid] : 1.24
CCCCCc1cc(O)c(C/C=C(\C)CCC=C(C)C)c(O)c1 [CBG, cannabigerol] : 4.36
CCCCCc1cc(O)c2c(c1)OC(C)(C)[C@@H]1CCC(C)=C[C@@H]21 [D9 THC, delta-9-tetrahydrocannabinol, reference compound] : 11.8
C=C(C)[C@@H]1CCC(C)=C[C@H]1c1c(O)cc(CCCCC)c(C(=O)O)c1O [CBDA, cannabidiolic acid] : 1.54

Moving on to another compound below.
Q. Note Stability of Plant-Derived Cannabinoid Compounds in AB Red for the compound shown: CCCCCc1cc(O)c2c(c1)OC1(C)CCC3C1C2C3(C)C (stereo not drawn) [CBL, cannabicyclol]
A. 0.47
